The compounds listed here are annotated with their AUC.
# assay notes: AUC in mouse at 1 mg/ml, iv
# Format: ADME
# Design: dose 1 mg/ml, route iv
# experimental conditions: in vivo
Number only, in µM·h; omit the unit.

Reference set (2 entries):
cpd smiles	endpoint label	value
Cc1cc(N2CCc3c(c(C)nn3CC34CCC(NC(=O)[C@@H]5COCCN5)(CC3)CC4)C2)c2cnn(C)c2n1	AUC	5.67
CN[C@@H](C)C(=O)NC12CCC(Cn3nc(C)c4c3CCN(c3cc(C)nc5c3cnn5C)C4)(CC1)CC2	AUC	1.79

Here is the next item to consider.
Q: Give reported AUC value for `CCNCC(=O)NC12CCC(Cn3nc(C)c4c3CCN(c3cc(C)nc5c3cnn5C)C4)(CC1)CC2`
Result: 9.28
